Measured kinase still bound, per cent of control by item
Biological target: UniProt O60331
Sequence (O60331 whole entry, looked up): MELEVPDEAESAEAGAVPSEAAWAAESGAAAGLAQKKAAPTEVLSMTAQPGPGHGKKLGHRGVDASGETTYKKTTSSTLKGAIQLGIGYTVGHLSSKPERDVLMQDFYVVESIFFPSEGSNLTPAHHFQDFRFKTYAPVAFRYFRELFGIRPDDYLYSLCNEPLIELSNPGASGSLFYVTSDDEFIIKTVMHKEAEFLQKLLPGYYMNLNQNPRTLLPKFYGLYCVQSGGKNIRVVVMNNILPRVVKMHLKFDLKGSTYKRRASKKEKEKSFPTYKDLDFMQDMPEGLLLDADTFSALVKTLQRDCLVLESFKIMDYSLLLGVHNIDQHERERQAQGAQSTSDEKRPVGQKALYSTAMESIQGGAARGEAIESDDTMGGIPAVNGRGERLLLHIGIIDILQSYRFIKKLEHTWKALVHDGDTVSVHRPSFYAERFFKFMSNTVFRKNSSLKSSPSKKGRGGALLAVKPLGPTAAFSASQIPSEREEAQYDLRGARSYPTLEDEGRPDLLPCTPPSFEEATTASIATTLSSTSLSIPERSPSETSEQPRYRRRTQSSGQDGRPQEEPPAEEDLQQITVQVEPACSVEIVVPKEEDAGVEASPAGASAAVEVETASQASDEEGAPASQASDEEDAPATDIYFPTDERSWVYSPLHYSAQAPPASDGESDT
Assay: KINOMEscan competition binding
Details: compound 10.0 µM
Provide the reading as a plain figure in %.

For orientation, consider the following solved cases.
[[record]]
smiles_code = "N#Cc1cc(-c2ccnc(Nc3ccc(-n4cnc(-c5cccnc5)n4)cc3)n2)cc(N2CCOCC2)c1"
scale_unit = "%"
value = 100

[[record]]
smiles_code = "CNC(=O)Nc1ccc(-c2nc(N3CC4CCC(C3)O4)c3cnn(C4CCC5(CC4)OCCO5)c3n2)cc1"
scale_unit = "%"
value = 100


We now examine a further compound.
Return reported kinase still bound, per cent of control; argument: `CC(=O)c1c(C)c2cnc(Nc3ccc(N4CCNCC4)cn3)nc2n(C2CCCC2)c1=O`
35
